Test Target: PCSK9Δhelix (Homo sapiens)
Construct: Human PCSK9 construct M1-Q692 with an engineered TEV site (residue deletion Y166, R167); made in house; host or cells: CHO
Procedure Summary: PCSK9Δhelix/Ab20 TR-FRET binding assay
Test Conditions: TR-FRET, Example 7; read-out: PCSK9Δhelix/Ab20 IC50
Peptide text beside a SMILES is read from it. * marks the point of attachment. Pentanoyl = CCCCC(=O)*
Result Type: pIC50
Remember, pIC50 is on a log scale: it is -log10 of the molar concentration.

Query: pIC50; subject: CCCCC(=O)N[C@@H](Cc1c[nH]c2ccccc12)C(=O)N[C@@H](CC(N)=O)C(=O)N[C@@H](CC(C)C)C(=O)N[C@H](C(=O)N[C@@H](CCCNC(=N)N)C(=O)N[C@H](C(=O)NCC(=O)N[C@@H](CC(C)C)C(=O)N[C@H](C(=O)N[C@@H](CCCNC(=N)N)C(N)=O)[C@@H](C)O)[C@@H](C)CC)C(C)C [Compound 112] (Pentanoyl-WNLVRIGLTR-NH2)
5.12

* * *

Tested on: His-EGF(A)-Fc
Procedure Summary: His-EGF(A)-Fc TR-FRET counterscreen
Test Conditions: TR-FRET counterscreen; Table 8D; * = some inhibition at highest concentrations, not sufficient to fit an IC50
Bridge positions count the residues as written; N and C are the ends. Peptide text beside a SMILES is read from it.
Result Type: IC50

Query: IC50; subject: CC[C@H](C)[C@@H]1NC(=O)[C@H](CCCNC(=N)N)NC(=O)[C@H](CCCCN)NC(=O)[C@H](CC(C)C)NC(=O)[C@H](CC(N)=O)NC(=O)[C@H](Cc2c[nH]c3ccccc23)NC(=O)[C@H](CC(C)C)NC(=O)[C@@H](NC(=O)CNC(C)=O)CSSC[C@@H](C(=O)N[C@@H](Cc2c[nH]c3ccccc23)C(=O)N[C@@H](Cc2ccccc2)C(N)=O)NC(=O)[C@H](CCC(N)=O)NC(=O)[C@H](CO)NC(=O)CNC1=O [Compound 87] (Ac-GCLWNLKRIGSQCWF-NH2; disulfide 2-13 (inferred))
> 50 µM

Next entry: CC[C@H](C)[C@@H]1NC(=O)[C@H](CCCNC(=N)N)NC(=O)[C@H](C)NC(=O)[C@H](CC(C)C)NC(=O)[C@H](CC(N)=O)NC(=O)[C@H](Cc2c[nH]c3ccccc23)NC(=O)[C@@H]2CCCN2C(=O)[C@H](CC(C)C)NC(=O)[C@H](CCCNC(=N)N)NC(=O)[C@@H](NC(C)=O)CSSC[C@@H](C(N)=O)NC(=O)[C@@H]2CCCN2C(=O)[C@H](CC(C)C)NC(=O)CNC1=O [Compound 73] (Ac-CRLPWNLARIGLPC-NH2; disulfide 1-14)
> 50 µM

* * *

System: His-EGF(A)-Fc
Procedure Summary: His-EGF(A)-Fc TR-FRET counterscreen
Test Conditions: TR-FRET counterscreen; Table 8D; * = some inhibition at highest concentrations, not sufficient to fit an IC50
Bridge positions count the residues as written; N and C are the ends. Square brackets hold non-standard residues; d marks the D form. Peptide text beside a SMILES is read from it.
Result Type: IC50

Query: IC50; subject: CC[C@H](C)[C@@H]1NC(=O)[C@H](CCCNC(=N)N)NC(=O)[C@H](CCC(N)=O)NC(=O)[C@H](CC(C)C)NC(=O)[C@@H](CC(N)=O)NC(=O)[C@H](Cc2c[nH]c3ccccc23)NC(=O)[C@@H]2CCCN2C(=O)[C@H](CC(C)C)NC(=O)[C@H](CCCNC(=N)N)NC(=O)[C@@H](NC(C)=O)CSSC[C@@H](C(N)=O)NC(=O)[C@@H]2CCCN2C(=O)[C@H](CC(C)C)NC(=O)CNC1=O [Compound 105] (Ac-CRLPW[dN]LQRIGLPC-NH2; disulfide 1-14)
> 50 µM

* * *

Test Target: PCSK9Δhelix (Homo sapiens, UniProt Q8NBP7)
Construct: Human PCSK9 construct M1-Q692 with an engineered TEV site (residue deletion Y166, R167); made in house; host or cells: CHO
Sequence (Q8NBP7 with tags, fused parts or gaps limits assumed): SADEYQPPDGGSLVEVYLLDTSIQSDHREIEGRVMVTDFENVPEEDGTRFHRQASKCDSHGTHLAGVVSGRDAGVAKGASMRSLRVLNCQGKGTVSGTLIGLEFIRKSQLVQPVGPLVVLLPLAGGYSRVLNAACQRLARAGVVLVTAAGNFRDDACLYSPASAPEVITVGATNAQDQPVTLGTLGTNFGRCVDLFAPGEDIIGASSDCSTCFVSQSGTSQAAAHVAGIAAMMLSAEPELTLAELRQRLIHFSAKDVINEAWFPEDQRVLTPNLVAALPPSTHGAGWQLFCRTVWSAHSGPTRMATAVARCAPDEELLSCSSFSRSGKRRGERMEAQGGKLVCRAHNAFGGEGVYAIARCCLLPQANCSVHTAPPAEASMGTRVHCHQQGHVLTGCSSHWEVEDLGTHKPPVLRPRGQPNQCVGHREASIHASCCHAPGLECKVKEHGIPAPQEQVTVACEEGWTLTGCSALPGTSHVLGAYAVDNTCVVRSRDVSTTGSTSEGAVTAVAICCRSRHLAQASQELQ
Sequence (Q8NBP7 31-152 partner limits assumed): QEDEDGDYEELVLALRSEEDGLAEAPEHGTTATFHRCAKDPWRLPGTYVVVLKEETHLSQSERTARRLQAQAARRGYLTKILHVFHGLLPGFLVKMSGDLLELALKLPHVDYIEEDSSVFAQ
Procedure Summary: PCSK9Δhelix/Ab20 TR-FRET binding assay
Test Conditions: TR-FRET; Table 8D, disulfide-cyclized extension peptides; read-out: PCSK9Δhelix/Ab20 IC50
Bridge positions count the residues as written; N and C are the ends. Square brackets hold non-standard residues; d marks the D form. Peptide text beside a SMILES is read from it.
For each of the compounds below, state its pIC50.
Remember, pIC50 is on a log scale: it is -log10 of the molar concentration.

API: value(readout=pIC50, system=PCSK9Δhelix (Homo sapiens, UniProt Q8NBP7)) for record CC[C@H](C)[C@@H]1NC(=O)[C@H](CCCNC(=N)N)NC(=O)[C@H](CCC(N)=O)NC(=O)[C@H](C)NC(=O)[C@H](CC(N)=O)NC(=O)[C@H](Cc2c[nH]c3ccccc23)NC(=O)[C@@H]2CCCN2C(=O)[C@H](CC(C)C)NC(=O)[C@H](CCCNC(=N)N)NC(=O)[C@@H](NC(C)=O)CSSC[C@@H](C(N)=O)NC(=O)[C@@H]2CCCN2C(=O)[C@H](CC(C)C)NC(=O)CNC1=O [Compound 74] (Ac-CRLPWNAQRIGLPC-NH2; disulfide 1-14)
4.31

Next entry: CC[C@H](C)[C@@H]1NC(=O)[C@H](CCCNC(=N)N)NC(=O)[C@H](CCC(N)=O)NC(=O)[C@H](CC(C)C)NC(=O)[C@H](CC(N)=O)NC(=O)[C@H](Cc2c[nH]c3ccccc23)NC(=O)[C@@H]2CCCN2C(=O)[C@H](CC(C)C)NC(=O)[C@@H](CCCNC(=N)N)NC(=O)[C@@H](NC(C)=O)CSSC[C@@H](C(N)=O)NC(=O)[C@@H]2CCCN2C(=O)[C@H](CC(C)C)NC(=O)CNC1=O [Compound 109] (Ac-C[dR]LPWNLQRIGLPC-NH2; disulfide 1-14)
5.78

Next entry: CC[C@H](C)[C@@H]1NC(=O)[C@H](CCCNC(=N)N)NC(=O)[C@H](CCCCN)NC(=O)[C@H](CC(C)C)NC(=O)[C@H](CC(N)=O)NC(=O)[C@H](Cc2c[nH]c3ccccc23)NC(=O)[C@H](CC(C)C)NC(=O)[C@@H](NC(=O)[C@H](Cc2c[nH]c3ccccc23)NC(C)=O)CSSC[C@@H](C(=O)N[C@@H](Cc2c[nH]c3ccccc23)C(=O)N[C@@H](Cc2ccccc2)C(=O)O)NC(=O)[C@H](CCC(N)=O)NC(=O)[C@H](CO)NC(=O)CNC1=O [Compound 90] (Ac-WCLWNLKRIGSQCWF-OH; disulfide 2-13)
5.13

Next entry: CC[C@H](C)[C@@H]1NC(=O)[C@H](CCCNC(=N)N)NC(=O)[C@H](CCCCN)NC(=O)[C@H](CC(C)C)NC(=O)[C@H](CC(N)=O)NC(=O)[C@H](Cc2c[nH]c3ccccc23)NC(=O)[C@H](CC(C)C)NC(=O)[C@@H](NC(=O)[C@@H](N)Cc2c[nH]c3ccccc23)CSSC[C@@H](C(=O)N[C@@H](Cc2c[nH]c3ccccc23)C(=O)N[C@@H](Cc2ccccc2)C(N)=O)NC(=O)[C@H](CCC(N)=O)NC(=O)[C@H](CO)NC(=O)CNC1=O [Compound 89] (H-WCLWNLKRIGSQCWF-NH2; disulfide 2-13)
5.53

Next entry: CC[C@H](C)[C@@H]1NC(=O)[C@H](C)NC(=O)[C@H](CCC(N)=O)NC(=O)[C@H](CC(C)C)NC(=O)[C@H](CC(N)=O)NC(=O)[C@H](Cc2c[nH]c3ccccc23)NC(=O)[C@@H]2CCCN2C(=O)[C@H](CC(C)C)NC(=O)[C@H](CCCNC(=N)N)NC(=O)[C@@H](NC(C)=O)CSSC[C@@H](C(N)=O)NC(=O)[C@@H]2CCCN2C(=O)[C@H](CC(C)C)NC(=O)CNC1=O [Compound 72] (Ac-CRLPWNLQAIGLPC-NH2; disulfide 1-14)
4.40

* * *

Test Target: PCSK9Δhelix (Homo sapiens, UniProt Q8NBP7)
Construct: Human PCSK9 construct M1-Q692 with an engineered TEV site (residue deletion Y166, R167); made in house; host or cells: CHO
Procedure Summary: PCSK9Δhelix/Ab20 TR-FRET binding assay
Test Conditions: TR-FRET; Table 8E, additional compounds; read-out: PCSK9Δhelix/Ab20 IC50
Square brackets hold non-standard residues; d marks the D form. Peptide text beside a SMILES is read from it. * marks the point of attachment. Propanoyl(3-(4-MeO-Ph)) = COc1ccc(CCC(=O)*)cc1; X1 = O=C([C@H]1CC[C@@H](c2ccccc2)CC1)*; hArg = N=C(N)NCCCC[C@H](N)C(=O)O; X29 = Nc1ccc(CCC(=O)*)cc1
For each of the compounds below, state its IC50.
I only need the number, in nM, no unit after it.

Query: IC50; subject: CC[C@H](C)[C@H](NC(=O)[C@H](CCCNC(=N)N)NC(=O)[C@@H](NC(=O)[C@H](CC(C)C)NC(=O)[C@H](CC(N)=O)NC(=O)[C@H](Cc1c[nH]c2ccccc12)NC(=O)CCc1ccc(N)cc1)C(C)C)C(=O)NCC(=O)N[C@@H](CC(C)C)C(=O)N[C@H](C(=O)N[C@@H](CCCNC(=N)N)C(N)=O)[C@@H](C)O [Compound 161] (X29-WNLVRIGLTR-NH2)
5000

Next entry: CC[C@H](C)[C@H](NC(=O)[C@H](CCCCNC(=N)N)NC(=O)[C@@H](NC(=O)[C@H](CC(C)C)NC(=O)[C@H](CC(N)=O)NC(=O)[C@H](Cc1c[nH]c2ccccc12)NC(=O)CCc1ccc(OC)cc1)C(C)C)C(=O)NCC(=O)N[C@@H](CC(C)C)C(=O)N[C@@H](CC(C)C)C(=O)N[C@@H](CCCNC(=N)N)C(N)=O [Compound 197] ({Propanoyl(3-(4-MeO-Ph))}-WNLV[hArg]IGLLR-NH2)
90

Next entry: CC[C@H](C)[C@H](NC(=O)[C@H](CCCCNC(=N)N)NC(=O)[C@@H](NC(=O)[C@H](CC(C)C)NC(=O)[C@H](CC(N)=O)NC(=O)[C@H](Cc1c[nH]c2ccccc12)NC(=O)[C@H]1CC[C@@H](c2ccccc2)CC1)C(C)C)C(=O)NCC(=O)N[C@@H](CC(C)C)C(=O)N[C@@H](CC(C)C)C(=O)N[C@@H](CCCNC(=N)N)C(N)=O [Compound 208] (X1-WNLV[hArg]IGLLR-NH2)
100
